B1: TPR 5TU (parent)
chain: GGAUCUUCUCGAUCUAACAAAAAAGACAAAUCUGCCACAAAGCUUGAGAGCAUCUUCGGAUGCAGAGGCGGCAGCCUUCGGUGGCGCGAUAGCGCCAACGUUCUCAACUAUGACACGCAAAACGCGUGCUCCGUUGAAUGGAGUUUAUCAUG

variants of: B1; assay: polymerase ribozyme fitness, log enrichment relative to wild type (log ratio); higher = more active; in vitro selection for triplet polymerase activity
This sample holds only a part of the variants without activity.
QUANTITY MEASURED: polymerase ribozyme fitness (log ratio)
Give the value as a plain number.

What value of polymerase ribozyme fitness (log ratio) has been recorded for this entry: G50U G86A
-2.57

What value of polymerase ribozyme fitness (log ratio) has been recorded for this entry: G25C A119C
-2.68

What value of polymerase ribozyme fitness (log ratio) has been recorded for this entry: U44A G83U
-3.94

What value of polymerase ribozyme fitness (log ratio) has been recorded for this entry: G94C C105A
-1.22

What value of polymerase ribozyme fitness (log ratio) has been recorded for this entry: C51U C85U C96G A119C G141A
-2.65

What value of polymerase ribozyme fitness (log ratio) has been recorded for this entry: G84A U145A
0.189

What value of polymerase ribozyme fitness (log ratio) has been recorded for this entry: C57G G83U
-0.732

What value of polymerase ribozyme fitness (log ratio) has been recorded for this entry: G48C G70A C75G C87G C93G G140A G152A
-4.11

What value of polymerase ribozyme fitness (log ratio) has been recorded for this entry: G48A
-0.217
